# Tested on: MCF-7 human breast carcinoma
# METHOD: In vitro sensitivity, sulforhodamine B cytotoxicity assay, MCF-7 (Table 2)
# Format: cell-based
# MEASUREMENT SETUP: 72-hour incubation; averaged from two separate experiments
Recorded GI50 by entry

COMPOUND	GI50 / nM
CCCCC(Br)C(=O)O[C@@H](C(=O)O[C@H]1C[C@@]2(O)[C@@H](OC(=O)c3ccccc3)[C@@H]3[C@]4(OC(C)=O)CO[C@@H]4C[C@H](O)[C@@]3(C)C(=O)[C@H](OC(C)=O)C(=C1C)C2(C)C)[C@@H](NC(=O)c1ccccc1)c1ccccc1 (mixture of isomers) [2′-2-Bromohexanoyl-, 2′-(R)-[(±)-2-Bromohexanoyl] taxol]	2.3
CCCCCCCCCCCCCC[C@@H](Br)C(=O)O[C@@H](C(=O)O[C@H]1C[C@@]2(O)[C@@H](OC(=O)c3ccccc3)[C@@H]3[C@]4(OC(C)=O)CO[C@@H]4C[C@H](O)[C@@]3(C)C(=O)[C@H](OC(C)=O)C(=C1C)C2(C)C)[C@@H](NC(=O)c1ccccc1)c1ccccc1 [BrC16HT, 2′-(R)-[2-bromohexadecanoyl] paclitaxel]	71
CCCCCCCCCCCCC(Br)C(=O)OC(C(=O)OC1CC2(O)C(OC(=O)c3ccccc3)C3C4(OC(C)=O)COC4CC(O)C3(C)C(=O)C(OC(C)=O)C(=C1C)C2(C)C)C(NC(=O)c1ccccc1)c1ccccc1 (centres unmarked) [2′-2-Bromo-C14-Paclitaxel, 2′-(2 bromomyrstanoyl) paclitaxel]	16
CCCCCCCCCCC(Br)C(=O)OC(C(=O)OC1CC2(O)C(OC(=O)c3ccccc3)C3C4(OC(C)=O)COC4CC(O)C3(C)C(=O)C(OC(C)=O)C(=C1C)C2(C)C)C(NC(=O)c1ccccc1)c1ccccc1 (centres unmarked) [2′-2-Bromo-C12-Paclitaxel, 2′-(2 bromolauranoyl) paclitaxel]	2.8
CCCCCCC(Br)C(=O)O[C@@H](C(=O)O[C@H]1C[C@@]2(O)[C@@H](OC(=O)c3ccccc3)[C@@H]3[C@]4(OC(C)=O)CO[C@@H]4C[C@H](O)[C@@]3(C)C(=O)[C@H](OC(C)=O)C(=C1C)C2(C)C)[C@@H](NC(=O)c1ccccc1)c1ccccc1 (some centres unmarked) [2′-2-Bromo-C8-Paclitaxel, 2′-(2-bromocapryanoyl) paclitaxel]	2.9
